subject.of.test: Diacylglycerol kinase zeta (Homo sapiens)
Sequence (Q13574 as listed by the source): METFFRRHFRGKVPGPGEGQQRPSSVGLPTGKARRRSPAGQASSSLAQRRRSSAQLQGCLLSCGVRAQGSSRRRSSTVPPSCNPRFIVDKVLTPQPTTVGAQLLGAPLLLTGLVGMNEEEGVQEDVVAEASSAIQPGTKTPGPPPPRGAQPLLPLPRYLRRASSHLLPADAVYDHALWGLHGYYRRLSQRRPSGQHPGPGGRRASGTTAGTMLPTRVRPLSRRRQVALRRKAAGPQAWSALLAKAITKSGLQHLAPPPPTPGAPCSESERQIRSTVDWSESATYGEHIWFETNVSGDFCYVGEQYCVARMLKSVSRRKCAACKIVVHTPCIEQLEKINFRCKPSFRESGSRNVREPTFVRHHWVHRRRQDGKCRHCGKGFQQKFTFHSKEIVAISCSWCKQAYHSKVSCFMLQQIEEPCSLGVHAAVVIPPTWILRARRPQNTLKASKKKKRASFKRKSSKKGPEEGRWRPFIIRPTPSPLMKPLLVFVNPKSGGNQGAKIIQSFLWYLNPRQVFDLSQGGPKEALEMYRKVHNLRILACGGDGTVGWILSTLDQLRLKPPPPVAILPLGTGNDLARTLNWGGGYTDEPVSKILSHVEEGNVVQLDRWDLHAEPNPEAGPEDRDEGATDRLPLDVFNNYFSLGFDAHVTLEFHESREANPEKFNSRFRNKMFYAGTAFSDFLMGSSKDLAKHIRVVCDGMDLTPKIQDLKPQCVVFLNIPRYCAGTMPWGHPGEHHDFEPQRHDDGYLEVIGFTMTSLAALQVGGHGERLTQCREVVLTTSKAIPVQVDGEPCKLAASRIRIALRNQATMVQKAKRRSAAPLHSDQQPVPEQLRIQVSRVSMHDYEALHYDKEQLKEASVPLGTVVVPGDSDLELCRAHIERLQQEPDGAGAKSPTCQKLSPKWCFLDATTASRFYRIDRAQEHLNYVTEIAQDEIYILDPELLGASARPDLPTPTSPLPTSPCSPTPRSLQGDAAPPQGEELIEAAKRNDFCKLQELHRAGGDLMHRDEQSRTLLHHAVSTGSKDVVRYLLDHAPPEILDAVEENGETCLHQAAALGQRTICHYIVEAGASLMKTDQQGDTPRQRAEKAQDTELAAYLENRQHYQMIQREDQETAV
pIC50: −log10 of the molar value.

>  <mol>
COC1(c2nnc(-c3ccc4c(c3)N(Cc3ccc(Cl)cc3)C(=O)[C@@H](N)CS4(=O)=O)o2)CCC(F)(F)CC1

>  <pIC50>
5.84

$$$$
